// read-out log10 of IC50, gathered for human ACC2 (Homo sapiens (Human), UniProt O00763) from published studies
Measured metric: log10 of IC50 (log10 of the value in nM)

molecule="CC(=O)NC(C)Cc1ccc(C#Cc2ccc(-c3ccc(F)cc3)cn2)cc1 (centres unmarked)" study_system="human ACC2 (Homo sapiens (Human), UniProt O00763)" measured_metric="log10 of IC50" observed_value=2.08
molecule="CCNC(=O)C(C)c1ccc(C#Cc2ccc(OCC)cc2)cc1 (centres unmarked)" study_system="human ACC2 (Homo sapiens (Human), UniProt O00763)" measured_metric="log10 of IC50" observed_value=1.95
molecule="CC(=O)NC(C)Cc1ccc(C#Cc2cnc(Oc3ccc(F)cc3)nc2)cc1 (centres unmarked)" study_system="human ACC2 (Homo sapiens (Human), UniProt O00763)" measured_metric="log10 of IC50" observed_value=2.36
molecule="CCNC(=O)C(C)c1ccc(C#Cc2ccc(OCC3CC3)cc2)cc1 (centres unmarked)" study_system="human ACC2 (Homo sapiens (Human), UniProt O00763)" measured_metric="log10 of IC50" observed_value=2.18
molecule=CC(=O)N[C@@H](C)c1ccc(O[C@@H]2CCN(c3ccnc(N4CC(F)(F)C4)c3F)C2)cc1 study_system="human ACC2 (Homo sapiens (Human), UniProt O00763)" measured_metric="log10 of IC50" observed_value=1.77
molecule="CCOc1ccc(C#Cc2ccc(CC(C)NC(=O)C=C(C)C)cc2)cc1 (centres unmarked)" study_system="human ACC2 (Homo sapiens (Human), UniProt O00763)" measured_metric="log10 of IC50" observed_value=2.67
molecule=CC(=O)Nc1cncc(C(=O)N[C@@H](C)c2ccc(C3CN(c4ccc(OCC5CC5)cc4)C3)cc2)c1 study_system="human ACC2 (Homo sapiens (Human), UniProt O00763)" measured_metric="log10 of IC50" observed_value=3.34
molecule="CCOc1ccc(C#Cc2ccc(CC(C)NC(=O)CCC#N)cc2)cc1 (centres unmarked)" study_system="human ACC2 (Homo sapiens (Human), UniProt O00763)" measured_metric="log10 of IC50" observed_value=2.83
molecule=COc1cc(N2CC[C@@H](Oc3ccc([C@H](C)NC(C)=O)cc3)C2)cnc1OCC1CC1 study_system="human ACC2 (Homo sapiens (Human), UniProt O00763)" measured_metric="log10 of IC50" observed_value=3.43
molecule="CC(=O)NC(C)Cc1ccc(C#Cc2cnc(NCc3csc(C)n3)nc2)cc1 (centres unmarked)" study_system="human ACC2 (Homo sapiens (Human), UniProt O00763)" measured_metric="log10 of IC50" observed_value=3.70
molecule="C[C@H](NC(=O)C1CC1)c1ccc(CN2Cc3ccc(OCC4CC4(F)F)cc3C(O)C2)cc1 (some centres unmarked)" study_system="human ACC2 (Homo sapiens (Human), UniProt O00763)" measured_metric="log10 of IC50" observed_value=2.15
molecule="CC(Cc1ccc(C2CN(c3ccc(OCC4CC4)cc3)C2)cc1)NC(=O)CCC#N (centres unmarked)" study_system="human ACC2 (Homo sapiens (Human), UniProt O00763)" measured_metric="log10 of IC50" observed_value=3.48
molecule=CC(=O)N[C@@H](C)c1ccc(C#Cc2cnc(OC3CCC3)nc2)cc1 study_system="human ACC2 (Homo sapiens (Human), UniProt O00763)" measured_metric="log10 of IC50" observed_value=2.38
molecule=CC(=O)N[C@@H](C)COc1ccc(Oc2ccc(OC(C)C)cn2)cc1 study_system="human ACC2 (Homo sapiens (Human), UniProt O00763)" measured_metric="log10 of IC50" observed_value=3.08
molecule="COc1ccc(N2CCC(Oc3ccc([C@H](C)NC(C)=O)cc3)C2)cc1F (some centres unmarked)" study_system="human ACC2 (Homo sapiens (Human), UniProt O00763)" measured_metric="log10 of IC50" observed_value=2.78
molecule="CC(=O)NC(C)Cc1ccc(C#Cc2cccc(N(C)C)n2)cc1 (centres unmarked)" study_system="human ACC2 (Homo sapiens (Human), UniProt O00763)" measured_metric="log10 of IC50" observed_value=3.23
molecule="CC(=O)NC(C)CCc1ccc(Oc2ccc(OCC3CCC3)cn2)cc1 (centres unmarked)" study_system="human ACC2 (Homo sapiens (Human), UniProt O00763)" measured_metric="log10 of IC50" observed_value=1.70
